Molecular target: T1, monkey CD22 on HEK293T-monkey CD22 cells (monkey)
T1 construct: full-length entry expressed on stably transfected HEK293T cells
T1 chain: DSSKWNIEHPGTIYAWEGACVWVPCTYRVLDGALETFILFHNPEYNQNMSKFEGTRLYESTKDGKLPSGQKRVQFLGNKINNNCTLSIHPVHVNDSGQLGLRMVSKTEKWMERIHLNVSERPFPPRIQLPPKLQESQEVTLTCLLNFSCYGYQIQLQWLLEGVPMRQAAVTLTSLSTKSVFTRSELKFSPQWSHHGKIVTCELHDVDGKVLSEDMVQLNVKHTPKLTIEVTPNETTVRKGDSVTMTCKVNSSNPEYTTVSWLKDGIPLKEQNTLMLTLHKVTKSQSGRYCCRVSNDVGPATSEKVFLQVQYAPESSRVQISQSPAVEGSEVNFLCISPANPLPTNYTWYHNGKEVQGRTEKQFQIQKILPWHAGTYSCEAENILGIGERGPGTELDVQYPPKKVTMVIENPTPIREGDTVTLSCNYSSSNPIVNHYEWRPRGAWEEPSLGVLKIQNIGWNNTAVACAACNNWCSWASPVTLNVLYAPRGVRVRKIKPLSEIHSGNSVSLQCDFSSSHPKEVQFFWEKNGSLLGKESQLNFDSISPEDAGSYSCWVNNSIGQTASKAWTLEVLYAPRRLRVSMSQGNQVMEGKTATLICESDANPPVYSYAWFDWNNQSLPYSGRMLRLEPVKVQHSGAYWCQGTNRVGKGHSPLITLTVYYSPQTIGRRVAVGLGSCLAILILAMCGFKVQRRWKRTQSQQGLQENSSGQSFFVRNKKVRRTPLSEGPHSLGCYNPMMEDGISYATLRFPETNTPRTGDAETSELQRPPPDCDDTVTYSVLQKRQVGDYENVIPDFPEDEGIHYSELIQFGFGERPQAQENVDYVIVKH
Experiment: FACS, HEK293T-monkey CD22 cells
The entries below are paired with their reported Maximum mean fluorescence intensity.
Answer format: numeric, MFI implied, no suffix.

Worked cases, answers included:
F1.60.9 (antibody, human IgG1, kappa, V domains shown, human-murine chimeric IgG1 kappa) VH: QVQLKESGPGLVAPSQSLSITCTVSGLSLNNYGVSWVRQPPGKGLEWLGVIWGDGSTNYHSALISRLSISKDNSKSQVFLKLNSLHTDDTATYYCAINWGDYWGQGTTLIVSS VL: DIKMTQSPSSMNASLGERVTITCKASQDINSYLSWFQQKPGKSPKILIYRANRLIDGVPSRFSGSGSGQDYSLTISSLEYEDMGIYYCLQYGVFPLTFGAGTKLELKR: 531
F1.17.1 (antibody, human IgG1, kappa, V domains shown, human-murine chimeric IgG1 kappa) VH: QVQLKESGPGLVAPSQSLSITCTVSGFSLSRYTVHWVRQPPGKGLEWLGMIWGGGSTDYNSALKSRLSISKDNSKSQVFLKMNSLQTDDTAMYYCARPHDFDAGGFAYWGQGTLVTVSA VL: QIVLTQSPAILSTSPGEKVTMTCSASSRVNYMYWYQQKPGSSPRLLIYDTSNLASGVPVRFSGSGSGTSYSLTISRMEAEDAATYYCQQWTSYPLTFGAGTKLELKR: 17200
F1.120.15 (antibody, human IgG1, kappa, V domains shown, human-murine chimeric IgG1 kappa) VH: QVQLQQSGPELVKPGASVKISCKASGNAFSNSWMNWVKQRPGKGLEWIGRVYSEDGDTQYNGKFRDKATLTADRSTSTAYMQLSSLTSEDSAVYFCARWLIYYGTYGAMDYWGQGTSVTVSS VL: DIQMTQTTSSLSASLGDRVTISCRASQDINNYLNWYHQKPDGTVKLLIYFTSRPYSGVPSRFSGSGSGTDYSLTISNLEQEDIATYFCQQGNTLPWTFGGGTKLEIKR: 13600

State the recorded Maximum mean fluorescence intensity for this entry: F1.62.10 (antibody, human IgG1, kappa, V domains shown, human-murine chimeric IgG1 kappa) VH: QVQLQQSGPELVKPGASVKISCKASGYEFSSIWMNWVKQRPGEGLEWIGRIFPGDGEINYNEKFKGKATLTADRSSTTAYMQLSSLTSEDSAVYFCAGWRIYYGTYGAMDYWGQGTSVTVSS VL: DIQMTQITSSLSASLGDRVTISCRASQDIGNYLNWYQQKPDGTVKLLIYYTSRLHSGVPSRFSGSGSRTDYSLTISNLQQEDIATYFCQQGNTLPWTFGGGTKLEIKR
4330

State the recorded Maximum mean fluorescence intensity for this entry: F1.216.2 (antibody, human IgG1, kappa, V domains shown, human-murine chimeric IgG1 kappa) VH: QVQLQQSGPEVVRPGASVKISCKASGYAFSSSWMNWMKQRPGKALEWIGRIYPGDGDTNYSGEFKVKATLTADKSSSTAYMQLSSLTSEDSAVYFCAREGSYYSNPWYFDYWGQGTTLTVSS VL: DVLVTQTPLSLPVSLGDQASISCRSSQSIVQSNGDTYLEWYLQKPGQSPKLLIYKVSNRFSGVPDRFSGSGSGTDFTLKISRVEAEDLGVYYCFQGSHVPFTFGSGTKLEIKR
13900

State the recorded Maximum mean fluorescence intensity for this entry: F1.224.1 (antibody, human IgG1, kappa, V domains shown, human-murine chimeric IgG1 kappa; VL name legible) VH: EVLLHQSGPELVKPGASVKISCKASGYTFTDFNMDWVRQRHGQSLEWIGDVNPNNGGTIYNQKFKGKATLTVDKSSSTVYMDLRSLTSDDTAVYYCVRLGTSDYGEAWFISWGQGTVVTVSA VL: DIVLTQSPASLAVSLGQRATISCRASQSVSTPRYSFMHWYQQKPGQPPKLLIKYASNLESGFPARFTGSGSGTDFTLNIHPVEEEDTAAYYCQQSWAIPWTFGGGTKLEIKR
16300

State the recorded Maximum mean fluorescence intensity for this entry: F1.7.6 (antibody, human IgG1, kappa, V domains shown, human-murine chimeric IgG1 kappa; VL name legible) VH: EIQLQQSGPELVKPGTSVKVSCKASGYDFTRYNMYWVKQSHGKSLEWIGYIDPYNGDTRYNQKFKGKATLTVDKSSSTAYMHLNSLTSEDSAVYYCEAIYYDMEGYALDYWGQGTSVTVSS VL: DIVMSQSPSSLAVSVGEKVTMSCKSSQSLLYSNNQKNYLAWYQQKPGQSPKKLIYWASTRESGVPDRLTGSGSGTDFTLTISSVTAEDLAVYYCQQFYSYPWTFGGGTKLEIKR
9220
